# ASSAY: qHTS of pediatric cancer cell lines to identify multiple opportunities for drug repurposing: Primary screen for Saos-2 cells (AID 1347097); also: nearly all actives have a fitted effect of over 40% in size
# EXPERIMENTAL SETUP: Saos-2 viability, CellTiter-Glo ATP luminescence, 48 h; series mostly up to 46 µM
Results filed as inconclusive are left out. The source made the active and inactive calls. Calls follow the shape of the dose curve; as a rule, active = well fitted cell-killing curve with a large enough effect; inconclusive = small, poorly fitted or top-dose-only effect; inactive = no such curve, though single readings can be large or run the other way.
Labels: active, inactive

MOLECULE | CLASS
COc1cc2c(Oc3ccc(NC(=O)C4(C(=O)Nc5ccc(F)cc5)CC4)cc3F)ccnc2cc1OCCCN1CCOCC1 | active
Cc1cc(Nc2ncnc3ccc(-c4ccc(CNCCS(C)(=O)=O)o4)cc23)ccc1Oc1ccn2ncnc2c1 | active
O=C(Nc1cn[nH]c1-c1nc2ccc(CN3CCOCC3)cc2[nH]1)NC1CC1 | active
C1Cc2[nH]nc(-c3nn[nH]n3)c2C1 | inactive
CC(C)c1cc(C(=O)N2Cc3ccc(CN4CCN(C)CC4)cc3C2)c(O)cc1O | active
CC(C)(C)c1cc(NC(=O)Nc2ccc(-c3cn4c(n3)sc3cc(OCCN5CCOCC5)ccc34)cc2)no1 | active
C[C@]1(CO)CN(c2cc(C(=O)Nc3ccc4c(c3)-c3c(c(C(N)=O)nn3-c3ccc(F)cc3)CC4)c(Cl)cn2)C[C@@]1(C)CO | active
O=C(Nc1ncc(-c2cc(C(F)F)nn2-c2c(Cl)cccc2Cl)s1)C1CC1 | active
Cc1cc(N2CCOCC2)cc2[nH]c(-c3c(NC[C@@H](O)c4cccc(Cl)c4)cc[nH]c3=O)nc12 | active
Nc1ccn([C@@H]2CS[C@H](CO)O2)c(=O)n1 | inactive
CN1CCN(c2cc(C(=O)Nc3ccc4c(c3)-c3c(c(C(N)=O)nn3-c3ccc(F)cc3)CC4)c(Cl)cn2)CC1 | active
CC1(C)CC(=O)c2c(C(F)(F)F)nn(-c3ccc(C(N)=O)c(NC4CCC(OC(=O)CN)CC4)c3)c2C1 (centres undefined) | active
CC1(C)OC2=C(C(=O)c3ccccc3C2=O)[C@H](NCc2ccccc2)[C@H]1O | active
CC(C)c1ccccc1Cc1cc(C(=O)Nc2ccc(S(=O)(=O)c3ccccc3C(C)(C)C)cc2)c(O)c(O)c1O | active
COc1c(N2C[C@@H]3CCCN[C@H]3C2)c(F)cc2c(=O)c(C(=O)O)cn(C3CC3)c12 | inactive
O=C(O)CO.[NH2-].[NH2-].[Pt+2] | inactive
CCS(=O)(=O)c1cccc(-c2cc(C(=O)NC3CCN(C)CC3)c(C)c3[nH]c4ncc(C)cc4c23)c1 | active
Clc1ccc2ncc(-c3cccc(NC4CNC4)n3)n2c1 | inactive
CNC(=O)c1ccccc1Nc1nc(Nc2ccc(N3CCOCC3)cc2OC)ncc1Cl | active

* * *

# ASSAY: Cell Proliferation Assay against the TMD8 Cell Line (AID 651645);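 also: cells exposed to compound for 48 h before reading; 100% = DMSO and 0% = 9.2 µM bortezomib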
# EXPERIMENTAL SETUP: TMD8 DLBCL cell line proliferation/viability; at 46.1 µM (top of the series)
# Excerpt: One class of targeted therapeutics showing early clinical success in killing of ABC DLBCL lines are small molecule inhibitors of the Bruton tyrosine kinase (BTK) 11. Prior to any combination assays, using an NCATS developed oncology compound library called the Mechanism of Interrogation Plate (MIPE), two well studied ABC DLBCL lines (TMD8 and HBL1) were screened using a cell viability assay (CellTiterGlo) and a 12-point titration series for each single agent. […]
Measured viability (% of control) values are reported for all entries that follow.
RESULT TYPE: viability (% of control) (%)

COMPOUND | REPORTED MEASUREMENT
CN(C)CC=CC(=O)Nc1cc2c(Nc3ccc(F)c(Cl)c3)ncnc2cc1O[C@H]1CCOC1 | 0.0294
C=C1C(=CC=C2CCCC3(C)[C@@H]([C@H](C)C=CC=CC(O)(CC)CC)CC[C@@H]23)C[C@@H](O)C[C@@H]1O (some centres undefined) | 3.4
CN1CC[C@@H](c2c(O)cc(O)c3c(=O)cc(-c4ccccc4Cl)oc23)[C@@H](O)C1 | -0.0054
Nc1ccccc1NC(=O)c1ccc(CNc2nccc(-c3cccnc3)n2)cc1 | 2.31
Cc1cccc(C=NNc2cc(N3CCOCC3)nc(OCCc3ccccn3)n2)c1 | 0.274
CCN1CCN(CC(=O)Nc2ccc(-c3cccc4c(=O)cc(N5CCOCC5)oc34)c3sc4ccccc4c23)CC1 | 0.621
C=CC(=O)Nc1cc2c(Nc3ccc(F)c(Cl)c3)ncnc2cc1C#CC(C)(C)N1CCN(C)CC1 | -0.868
O=C(Nc1cc(C(F)(F)F)cc(C(F)(F)F)c1)c1cc(Cl)ccc1O | 1.86
CC(C)(C)OC(=O)Nc1ccc(-c2cc(C(=O)NCCCCCCC(=O)NO)no2)cc1 | 2.43

* * *

# ASSAY: qHTS of pediatric cancer cell lines to identify multiple opportunities for drug repurposing: Primary screen for control Hh wild type fibroblast cells (AID 1347106); also: nearly all actives have a fitted effect of over 55% in size; also: potency is read from the fitted curve at half-maximal effect
# EXPERIMENTAL SETUP: Hh wild-type fibroblast viability, CellTiter-Glo luminescence, 48 h; series mostly up to 46 µM
Results filed as inconclusive are left out. The source made the active and inactive calls. Calls come from the whole dose curve; as a rule, active = well fitted cell-killing curve with a large enough effect; inconclusive = small, poorly fitted or top-dose-only effect; inactive = flat fitted curve, though single readings scatter.
RESULT TYPE: Potency

COMPOUND | RESULT TYPE | REPORTED MEASUREMENT
Nc1ccccc1NC(=O)c1ccc(CNc2nccc(-c3cccnc3)n2)cc1 | Potency | 14.8 µM (active)
Cc1coc2c1C(=O)C(=O)c1c-2ccc2c1CCCC2(C)C | Potency | inactive
O=C(c1cncc(Br)c1)N1CCC(N2CCCC2)CC1 | Potency | inactive
Nc1nccc(Oc2ccc(NC(=O)c3c[nH]cc(-c4ccc(F)cc4)c3=O)cc2F)c1Cl | Potency | inactive
Cc1cc(CN2CCN(c3c(Br)cnc4nc(-c5ccc(N6CCN(C)CC6)cc5)[nH]c34)CC2)no1 | Potency | inactive
O=c1[nH]c(=O)n(C2CCCO2)cc1F (centres undefined) | Potency | inactive
C[C@@]12O[C@@H](C[C@]1(O)CO)n1c3ccccc3c3c4c(c5c6ccccc6n2c5c31)CNC4=O | Potency | 23.5 µM (active)
Cc1c(C)n(Cc2ccc(-c3ccccc3C(=O)O)cc2)c2ccc(C(=O)N[C@@H](C)c3ccc([N+](=O)[O-])cc3)cc12 | Potency | inactive
Cc1cc(Nc2ncnc3ccc(-c4ccc(CNCCS(C)(=O)=O)o4)cc23)ccc1Oc1ccn2ncnc2c1 | Potency | inactive

* * *

# ASSAY: qHTS of pediatric cancer cell lines to identify multiple opportunities for drug repurposing: Primary screen for Rh18 cells (AID 1347102); also: nearly all actives have a fitted effect of over 65% in size
# EXPERIMENTAL SETUP: Rh18 rhabdomyosarcoma viability, CellTiter-Glo luminescence, 48 h; series mostly up to 46 µM
Inconclusive results are not listed. Activity calls are given as the source filed them. Calls come from the whole dose curve; as a rule, active = well fitted cell-killing curve with a large enough effect; inconclusive = small, poorly fitted or top-dose-only effect; inactive = flat fitted curve, though single readings scatter.
Outcomes: Y for active, N for inactive

MOLECULE | CLASS
Cc1cn2cc(C(=O)N(C)CCO)cc(N[C@@H]3CCOc4cccc(C)c43)c2n1 | N
OCc1ccc(-c2ccc(-c3ccc(CO)s3)o2)s1 | N
Cn1c2cc(S(C)=O)sc2c2cnn(Cc3cccc(N)c3)c(=O)c21 (stereo not drawn) | N
O=C(C=Cc1cccc(S(=O)(=O)Nc2ccccc2)c1)NO | Y
Nc1ccc(C(=O)c2cc3c(ccc4ccccc43)[nH]2)cc1 | N
CN(C)Cc1c(C(=O)NCCOc2ccc(C(=O)NO)cc2)oc2ccccc12 | Y
CC(C)Nc1cc(C(F)(F)F)cc2nc(NC(=O)c3cccnc3)nn12 | N
CC=C1NC(=O)[C@H]2CSSCCC=C[C@H](CC(=O)N[C@H](C(C)C)C(=O)N2)OC(=O)[C@H](C(C)C)NC1=O | Y
Nc1nc(NCCNc2ncc(-n3ccnc3)c(-c3ccc(Cl)cc3Cl)n2)ccc1[N+](=O)[O-] | Y
CN(C)CC=CC(=O)Nc1cc2c(Nc3ccc(F)c(Cl)c3)ncnc2cc1O[C@H]1CCOC1 | Y
NC(=O)Nc1cc(-c2cccc(F)c2)sc1C(=O)N[C@H]1CCCNC1 | Y
C#Cc1cccc(Nc2ncnc3cc(OC)c(OCCCCCCC(=O)NO)cc23)c1 | Y
C=CC(=O)Nc1cc2c(Nc3ccc(F)c(Cl)c3)ncnc2cc1C#CC(C)(C)N1CCN(C)CC1 | Y
CC1COC2(CCN(c3nc(=O)c4cc(C(F)(F)F)cc([N+](=O)[O-])c4s3)CC2)O1 (stereo not drawn) | N
O=C(CCCCCCNC(=O)c1cnc(N(c2ccccc2)c2ccccc2)nc1)NO | Y
COc1cc(=C2C=c3ccccc3=N2)[nH]c1=Cc1[nH]c(C)cc1C | Y
O=C(Cc1ccc(-c2ccc(OCCN3CCOCC3)cc2)cn1)NCc1ccccc1 | Y
CC(C)(C)c1cc(NC(=O)Nc2ccc(-c3cn4c(n3)sc3cc(OCCN5CCOCC5)ccc34)cc2)no1 | N
Cc1c(Cn2c(C)nc3c(C(=O)O)cc(N4CCOCC4)cc32)cccc1C(F)(F)F | N
COC(=O)C1=C(C)NC(C)=C(C(=O)OCCN2CCN(C(c3ccccc3)c3ccccc3)CC2)C1c1cccc([N+](=O)[O-])c1 (stereo not drawn) | Y
CC(C)C[C@H](NC(=O)CNC(=O)c1cc(Cl)ccc1Cl)B(O)O | Y
CC1(C)CCC(c2ccc(Cl)cc2)=C(CN2CCN(c3ccc(C(=O)NS(=O)(=O)c4ccc(N[C@H](CCN5CCOCC5)CSc5ccccc5)c(S(=O)(=O)C(F)(F)F)c4)cc3)CC2)C1 | Y
O=C(O)CCCc1c[nH]c2ccccc12 | N
CC(C)[C@H](C(=O)Nc1ccc(C(=O)NO)cc1)c1ccccc1 | Y
C1Cc2[nH]nc(-c3nn[nH]n3)c2C1 | N
CN1c2cc(O)c(N=NC(N)=O)cc2CC1S(=O)(=O)O (stereo not drawn) | N
COc1cc2ncnc(Nc3ccc(F)c(Cl)c3)c2cc1NC(=O)C=CCN1CCCCC1 | Y
O=C(Nc1cc(C(F)(F)F)cc(C(F)(F)F)c1)c1cc(Cl)ccc1O | Y
CC(C)(O)CCc1ccc(OCc2cc(-c3cccc(OC(F)F)c3)c3ncccc3c2)cc1 | N
C[C@]1(CO)CN(c2cc(C(=O)Nc3ccc4c(c3)-c3c(c(C(N)=O)nn3-c3ccc(F)cc3)CC4)c(Cl)cn2)C[C@@]1(C)CO | Y
C[C@]12CC[C@H](O)CC1=CCC1C2CC[C@]2(C)C(n3cnc4ccccc43)=CCC12 (stereo partly drawn) | N
CCCCOc1c(C(=O)c2c(F)cc(C)cc2F)cnc2n[nH]cc12 | N
COc1cccc(-c2ccc(NC(=O)C3=C(C(=O)O)CCC3)c(F)c2)c1 | N
CC[C@@H]1C(=O)N(C)c2cnc(Nc3ccc(C(=O)NC4CCN(C)CC4)cc3OC)nc2N1C1CCCC1 | Y
CCc1c2c(nc3ccc(O)cc13)-c1cc3c(c(=O)n1C2)COC(=O)[C@]3(O)CC | Y
Cn1c(CNc2ccc(C(=N)N)cc2)nc2cc(C(=O)N(CCC(=O)O)c3ccccn3)ccc21 | N
Cc1nc2ccc(CN(C)c3ccc(C(=O)N[C@@H](CCC(=O)O)C(=O)O)s3)cc2c(=O)[nH]1 | N
CC(=O)Nc1nc(C)c(-c2ccc(Cl)c(S(=O)(=O)NCCO)c2)s1 | Y
